biological target: Fuc(a1-2)[GalNAc(a1-3)]Gal(b1-4)Glc; test: glycan array binding signal (z-score within array); higher = stronger binding; settings: glycan notation: IUPAC condensed, linker removed
This is one part of a sample in which the strongest signals are shown more often than they occur.
property label: glycan array binding signal (z-score)
Respond using a number only.

Req: Which glycan array binding signal (z-score) value is on record for RS2L (Ralstonia solanacearum), B5RXL5_RALSO (protein) MAQQGVFTLPANTSFGVTAFANAANTQTIQVLVDNVVKATFTGSGTSDKLLGSQVLNSGSGAIKIQVSVNGKPSDLVSNQTILANKLNFAMVGSEDGTDNDYNDGIAVLNWPLG ?
Resp: -0.244

Req: Given the binder Flo1 (Saccharomyces cerevisiae), P32768 (protein) SGATEACLPAGQRKSGMNINFYQYSLKDSSTYSNAAYMAYGYASKTKLGSVGGQTDISIDYNIPCVSSSGTFPCPQEDSYGNWGCKGMGACSNSQGIAYWSTDLFGFYTTPTNVTLEMTGYFLPPQTGSYTFKFATVDDSAILSVGGATAFNCCAQQQPPITSTNFTIDGIKPWGGSLPPNIEGTVYMYAGYYYPMKVVYSNAVSWGTLPISVTLPDGTTVSDDFEGYVYSFDDDLSQSNCTVPDPSNY , what is its reported glycan array binding signal (z-score)?
Resp: 0.017

Req: glycan array binding signal (z-score) for LF82 (Escherichia coli) (protein) ADWGPCRTASGDPFIFVTSFTKNIQNPTDNVTGQTYPDFYQWALGDKYSGVCECPSPNPTEARPTLYKTESTLAAGHNSTYFKITNNLEVSTRVYIANVGNVQVPFINKSNSQPGRECDQPTFGWTTGSKGQLSLYIAKPFVGEQNIPQTIIVSVFGTKKENVYSSVPISQVLLSGKVTVTQGCELAAGTSLDIDFGEYQAHDFKGRTGQPPQNVQKIQKELTFNCTNISDGVHIYLSLEGTPNAAYPSAISLGNADVGAVIEDGKGNILKPNDSNSLLEMNPGSLYEYVKRKVTTTITAYPVSTTGKLPAAGDYSGVATMHVELDGGGGGGGGGGATTDLGAKGTLKFSLKISQGHHHHHH ?
Resp: -0.933
